# System: KB
# experimental protocol: Anticancer activity against human KB cells after 72 hrs by sulforhodamine B assay
# Assay type: functional
recorded endpoint: log10(GI50) (log10 of the value in µM)
The figures below represent log10 of GI50, where GI50 is stated in µM.

# query smiles, log10(GI50)
measured = [
    ("COc1ccc2c3c(c4cc(OC)c(OC)cc4c2c1)C[C@H]1CN(S(C)(=O)=O)CCN1C3", 1.24),
    ("COc1ccc2c3c(c4cc(OC)c(OC)cc4c2c1)C[C@@H]1CN(C)CN1C3", -0.10),
    ("COc1ccc2c3c(c4cc(OC)c(OC)cc4c2c1)C[C@H]1CCN(CC(C)C)CN1C3", 0.70),
    ("COc1ccc2c3c(c4cc(OC)c(OC)cc4c2c1)C[C@H]1CN(Cc2ccccc2)CN1C3", 0.76),
    ("COc1ccc2c3c(c4cc(OC)c(OC)cc4c2c1)C[C@H]1CN(C2CC2)CN1C3", 0.43),
]

Give log10(GI50) for all compounds that follow.
1. COc1ccc2c3c(c4cc(OC)c(OC)cc4c2c1)C[C@@H]1COCCN1C3
2. COc1ccc2c3c(c4cc(OC)c(OC)cc4c2c1)C[C@H]1CNCCN1C3
3. COc1ccc2c3c(c4cc(OC)c(OC)cc4c2c1)C[C@H]1CN(Cc2ccccc2)CCN1C3
4. COc1ccc2c3c(c4cc(OC)c(OC)cc4c2c1)C[C@H]1CN(N(C)C)CN1C3
5. COC(=O)N1CCN2Cc3c(c4cc(OC)c(OC)cc4c4cc(OC)ccc34)C[C@H]2C1

Completion:
[0.82, 0.25, 1.23, 0.36, 1.05]

// data source = ChEMBL document CHEMBL1811876
